Target sequence: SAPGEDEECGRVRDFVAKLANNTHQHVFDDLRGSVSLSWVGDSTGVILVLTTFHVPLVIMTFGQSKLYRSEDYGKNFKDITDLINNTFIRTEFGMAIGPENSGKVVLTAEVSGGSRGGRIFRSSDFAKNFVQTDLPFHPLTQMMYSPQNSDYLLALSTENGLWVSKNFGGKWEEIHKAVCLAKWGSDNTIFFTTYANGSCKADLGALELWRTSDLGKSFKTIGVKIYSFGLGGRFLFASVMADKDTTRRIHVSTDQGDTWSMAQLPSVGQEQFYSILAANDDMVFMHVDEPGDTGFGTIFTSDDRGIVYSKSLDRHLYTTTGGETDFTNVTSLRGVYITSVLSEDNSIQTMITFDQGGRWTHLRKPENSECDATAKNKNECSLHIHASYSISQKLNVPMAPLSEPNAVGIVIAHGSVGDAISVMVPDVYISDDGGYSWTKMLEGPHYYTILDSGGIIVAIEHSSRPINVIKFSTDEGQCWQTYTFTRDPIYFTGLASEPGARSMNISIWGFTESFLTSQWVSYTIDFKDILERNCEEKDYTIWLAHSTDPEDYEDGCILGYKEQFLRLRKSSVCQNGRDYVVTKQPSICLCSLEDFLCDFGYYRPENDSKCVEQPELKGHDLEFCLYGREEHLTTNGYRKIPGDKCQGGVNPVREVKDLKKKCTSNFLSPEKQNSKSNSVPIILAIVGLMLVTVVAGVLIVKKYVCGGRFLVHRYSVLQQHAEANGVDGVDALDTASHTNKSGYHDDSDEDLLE
pIC50: −log10 of the molar value. Peptide text beside a SMILES is read from it.
Measured pIC50, listed per entry for reference.
metric name: pIC50

INSERT INTO results (compound, observed_value) VALUES
  ('Cn1cnc(C[C@H](NC(=O)[C@H](Cc2ccc(O)cc2)NC(=O)[C@@H]2CCCN2)C(=O)N[C@@H](CCC(C)(C)C)C(=O)O)c1 [Example 7] (HELM PEPTIDE1{P.Y.[Cn1cnc(C[C@H](N[*:1])C(=O)[*:2])c1].[CC(C)(C)CC[C@H](N[*:1])C(=O)O]}$$$$V2.0)', 6.43),
  ('CC[C@H](C)[C@H](NC(=O)[C@H](Cc1ccc(O)cc1)NC(=O)[C@H]1CN(C(C)=O)CCO1)C(=O)N[C@@H](CCC(C)(C)C)C(=O)O [Example 25]', 6.85),
  ('CC(C)(C)CC[C@H](NC(=O)[C@H](Cc1cscn1)NC(=O)[C@H](CCC(N)=O)NC(=O)[C@@H]1CCCN1)C(=O)O [Example 11] (HELM PEPTIDE1{P.Q.[O=C([C@H](Cc1cscn1)N[*:1])[*:2]].[CC(C)(C)CC[C@H](N[*:1])C(=O)O]}$$$$V2.0)', 7.22),
  ('CC[C@H](C)[C@H](NC(=O)CNC(=O)[C@@H]1CCCN1)C(=O)N[C@@H](CCC(C)(C)C)C(=O)O [Example 16] (HELM PEPTIDE1{P.G.I.[CC(C)(C)CC[C@H](N[*:1])C(=O)O]}$$$$V2.0)', 7.10),
  ('CC[C@H](C)[C@H](NC(=O)[C@H](C)NC(=O)[C@@H]1CCCN1)C(=O)N[C@@H](CCC(C)(C)C)C(=O)O [Example 17] (HELM PEPTIDE1{P.A.I.[CC(C)(C)CC[C@H](N[*:1])C(=O)O]}$$$$V2.0)', 7.15),
  ('CC(C)(C)CC[C@H](NC(=O)[C@H](Cc1ccccn1)NC(=O)[C@H](Cc1ccc(O)cc1)NC(=O)[C@@H]1CCCN1)C(=O)O [Example 5] (HELM PEPTIDE1{P.Y.[O=C([C@H](Cc1ccccn1)N[*:1])[*:2]].[CC(C)(C)CC[C@H](N[*:1])C(=O)O]}$$$$V2.0)', 6.57),
  ('CC[C@H](C)[C@H](NC(=O)[C@H](Cc1ccc(O)cc1)NC(=O)[C@@H]1CCCO1)C(=O)N[C@@H](CCC(F)(F)F)C(=O)O [Example 1]', 5.50),
  ('CC[C@H](C)[C@H](NC(=O)[C@H](Cc1ccc(O)cc1)NC(=O)[C@H]1CCNC1)C(=O)N[C@@H](CCC(C)(C)C)C(=O)O [Example 20]', 6.82),
  ('CC(C)(C)CC[C@H](NC(=O)[C@H](CN1CCOCC1)NC(=O)[C@H](Cc1ccc(O)cc1)NC(=O)[C@@H]1CCCN1)C(=O)O [Example 13] (HELM PEPTIDE1{P.Y.[O=C([C@H](CN1CCOCC1)N[*:1])[*:2]].[CC(C)(C)CC[C@H](N[*:1])C(=O)O]}$$$$V2.0)', 6.80),
  ('CC(C)(C)CC[C@H](NC(=O)[C@H](Cc1cscn1)NC(=O)[C@H](Cc1ccc(O)cc1)NC(=O)[C@@H]1CCCN1)C(=O)O [Example 12] (HELM PEPTIDE1{P.Y.[O=C([C@H](Cc1cscn1)N[*:1])[*:2]].[CC(C)(C)CC[C@H](N[*:1])C(=O)O]}$$$$V2.0)', 7.15),
  ('CC(C)(C)CC[C@H](NC(=O)[C@H](Cc1cccnc1)NC(=O)[C@H](Cc1ccc(O)cc1)NC(=O)[C@@H]1CCCN1)C(=O)O [Example 6] (HELM PEPTIDE1{P.Y.[O=C([C@H](Cc1cccnc1)N[*:1])[*:2]].[CC(C)(C)CC[C@H](N[*:1])C(=O)O]}$$$$V2.0)', 7.05),
  ('CC[C@H](C)[C@H](NC(=O)[C@H](Cc1ccc(O)cc1)NC(=O)[C@H]1CNCCN1)C(=O)N[C@@H](CCC(C)(C)C)C(=O)O [Example 18] (HELM PEPTIDE1{[O=C([C@H]1CNCCN1)[*:2]].Y.I.[CC(C)(C)CC[C@H](N[*:1])C(=O)O]}$$$$V2.0)', 6.96),
  ('CC[C@H](C)[C@H](NC(=O)[C@H](Cc1ccc(O)cc1)NC(C)=O)C(=O)N[C@@H](CCC(C)(C)C)C(=O)O [Example 28]', 6.72),
  ('CC(C)(C)CC[C@H](NC(=O)[C@H](Cc1ccncc1)NC(=O)[C@H](Cc1ccc(O)cc1)NC(=O)[C@@H]1CCCN1)C(=O)O [Example 8] (HELM PEPTIDE1{P.Y.[O=C([C@H](Cc1ccncc1)N[*:1])[*:2]].[CC(C)(C)CC[C@H](N[*:1])C(=O)O]}$$$$V2.0)', 6.70),
  ('Cn1cncc1C[C@H](NC(=O)[C@H](Cc1ccc(O)cc1)NC(=O)[C@@H]1CCCN1)C(=O)N[C@@H](CCC(C)(C)C)C(=O)O [Example 32] (HELM PEPTIDE1{P.Y.[Cn1cncc1C[C@H](N[*:1])C(=O)[*:2]].[CC(C)(C)CC[C@H](N[*:1])C(=O)O]}$$$$V2.0)', 7.00),
  ('CC[C@H](C)[C@H](NC(=O)[C@H](Cc1ccc(O)cc1)NC(=O)[C@@H]1CNCCN1)C(=O)N[C@@H](CCC(C)(C)C)C(=O)O [Example 19] (HELM PEPTIDE1{[O=C([C@@H]1CNCCN1)[*:2]].Y.I.[CC(C)(C)CC[C@H](N[*:1])C(=O)O]}$$$$V2.0)', 7.00);

---

Target chain: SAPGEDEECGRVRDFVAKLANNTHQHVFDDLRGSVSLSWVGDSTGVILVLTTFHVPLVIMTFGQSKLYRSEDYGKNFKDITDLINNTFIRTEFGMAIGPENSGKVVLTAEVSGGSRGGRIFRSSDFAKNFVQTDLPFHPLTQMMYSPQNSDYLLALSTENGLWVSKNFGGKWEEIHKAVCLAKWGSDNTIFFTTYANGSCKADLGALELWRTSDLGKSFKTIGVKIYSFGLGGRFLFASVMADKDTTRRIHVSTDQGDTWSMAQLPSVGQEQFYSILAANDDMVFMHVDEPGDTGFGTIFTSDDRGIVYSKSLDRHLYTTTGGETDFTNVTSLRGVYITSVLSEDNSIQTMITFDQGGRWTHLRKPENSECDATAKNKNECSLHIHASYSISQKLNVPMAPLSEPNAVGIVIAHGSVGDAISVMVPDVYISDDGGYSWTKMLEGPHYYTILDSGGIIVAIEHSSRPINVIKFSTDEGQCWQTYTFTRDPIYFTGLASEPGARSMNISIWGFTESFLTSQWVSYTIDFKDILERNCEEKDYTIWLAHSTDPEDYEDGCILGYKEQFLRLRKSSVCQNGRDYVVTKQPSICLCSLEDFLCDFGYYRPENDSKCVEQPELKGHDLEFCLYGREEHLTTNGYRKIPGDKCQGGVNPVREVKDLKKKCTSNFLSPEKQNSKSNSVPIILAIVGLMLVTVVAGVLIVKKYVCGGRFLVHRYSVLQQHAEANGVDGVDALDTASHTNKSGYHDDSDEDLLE
pIC50: −log10 of the molar value. Peptide text beside a SMILES is read from it.
This listing pairs molecules with measured pIC50.
metric name: pIC50

INSERT INTO results (molecule, observed_value) VALUES
  ('CC[C@H](C)[C@H](NC(=O)[C@H](Cc1ccc(O)cc1)NC(=O)[C@H]1CNCCO1)C(=O)N[C@@H](CCC(C)(C)C)C(=O)O [Example 30]', 7.05),
  ('CC(C)(C)CC[C@H](NC(=O)[C@H](Cc1ccsc1)NC(=O)[C@H](Cc1ccc(O)cc1)NC(=O)[C@@H]1CCCN1)C(=O)O [Example 9] (HELM PEPTIDE1{P.Y.[O=C([C@H](Cc1ccsc1)N[*:1])[*:2]].[CC(C)(C)CC[C@H](N[*:1])C(=O)O]}$$$$V2.0)', 6.85),
  ('CC[C@H](C)[C@H](NC(=O)[C@H](Cc1ccc(O)cc1)NC(C)=O)C(=O)N[C@@H](CCC(F)(F)F)C(=O)O [Example 3]', 5.95),
  ('CC(C)(C)CC[C@H](NC(=O)[C@H](Cc1c[nH]c2ccccc12)NC(=O)[C@H](Cc1ccc(O)cc1)NC(=O)[C@@H]1CCCN1)C(=O)O [Example 14] (HELM PEPTIDE1{P.Y.W.[CC(C)(C)CC[C@H](N[*:1])C(=O)O]}$$$$V2.0)', 7.22),
  ('CC(C)(C)CC[C@H](NC(=O)[C@H](Cc1cscn1)NC(=O)[C@H](CC(N)=O)NC(=O)[C@@H]1CCCN1)C(=O)O [Example 10] (HELM PEPTIDE1{P.N.[O=C([C@H](Cc1cscn1)N[*:1])[*:2]].[CC(C)(C)CC[C@H](N[*:1])C(=O)O]}$$$$V2.0)', 7.05);
